# measured_target: CHK2 (Homo sapiens, UniProt O96017)
# Construct: made in house
# Sequence (O96017 whole entry): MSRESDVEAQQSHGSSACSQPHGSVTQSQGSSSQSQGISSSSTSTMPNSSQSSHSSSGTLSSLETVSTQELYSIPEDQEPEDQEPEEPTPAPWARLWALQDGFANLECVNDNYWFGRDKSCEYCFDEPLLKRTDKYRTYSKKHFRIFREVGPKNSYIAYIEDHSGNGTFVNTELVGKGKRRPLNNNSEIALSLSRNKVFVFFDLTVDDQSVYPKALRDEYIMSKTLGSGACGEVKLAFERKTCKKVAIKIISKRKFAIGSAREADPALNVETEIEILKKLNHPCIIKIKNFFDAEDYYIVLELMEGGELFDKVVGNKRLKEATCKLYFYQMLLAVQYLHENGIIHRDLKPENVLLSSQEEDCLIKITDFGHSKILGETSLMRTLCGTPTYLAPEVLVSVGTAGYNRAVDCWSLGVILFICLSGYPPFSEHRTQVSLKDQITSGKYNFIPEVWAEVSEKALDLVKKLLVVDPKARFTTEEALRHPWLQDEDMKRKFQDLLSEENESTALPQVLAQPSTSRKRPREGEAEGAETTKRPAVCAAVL
# assay_text: CHK2 kinase activity assay (DELFIA, phosphorylation of a CDC25C peptide)
# Format: biochemical
# recorded_conditions: first set of tested compounds; ATP 30 μM, CHK2 1 nM; read-out: IC50, inhibition of CHK2 kinase activity in vitro
measurement_kind: IC50

Here is how some compounds turned out for IC50.
>>> df
                                   compound                      measured_target  measurement_kind   obs_value
0  O=C([C@H]1C[C@H](Nc2nc(-c3ccccc3O)nc3ccccc23)CN1)N1CCNCC1 [Compound A-035]  CHK2 (Homo sapiens, UniProt O96017)              IC50      < 3 µM
1  N[C@@H]1CCCC[C@@H]1Nc1nc(-c2ccccc2O)nc2ccccc12 (relative stereo) [Compound B-002]  CHK2 (Homo sapiens, UniProt O96017)              IC50  3 to 30 µM
2  Oc1ccccc1-c1cc(N[C@H]2CCNC2)c2ccccc2n1 [Compound C-001]  CHK2 (Homo sapiens, UniProt O96017)              IC50  3 to 30 µM
3  OCC#Cc1ccc2nc(-c3ccccc3O)nc(N[C@H]3CCNC3)c2c1 [Compound A-052]  CHK2 (Homo sapiens, UniProt O96017)              IC50      < 3 µM
4  CN1CCCC(Nc2nc(-c3ccccc3O)nc3ccccc23)C1 (centres unmarked) [Compound A-001]  CHK2 (Homo sapiens, UniProt O96017)              IC50      < 3 µM
5  CN1CCC[C@H](Nc2nc(-c3ccccc3O)nc3ccccc23)C1 [Compound A-007]  CHK2 (Homo sapiens, UniProt O96017)              IC50  3 to 30 µM

Record CN(C)C(=O)[C@H]1C[C@H](Nc2nc(-c3cc(F)ccc3O)nc3ccccc23)CN1 [Compound A-046] / CHK2 (Homo sapiens, UniProt O96017), IC50 recorded as < 3 µM

Record Oc1ccc(F)cc1-c1nc(N[C@@H]2CCCNC2)c2ccccc2n1 [Compound A-014] / CHK2 (Homo sapiens, UniProt O96017), IC50 recorded as < 3 µM

Record CCN(C)C(=O)[C@H]1C[C@H](Nc2nc(-c3ccccc3O)nc3ccccc23)CN1 [Compound A-050] / CHK2 (Homo sapiens, UniProt O96017), IC50 recorded as < 3 µM

Record NC1CCCC(Nc2nc(-c3ccccc3O)nc3ccccc23)C1 (centres unmarked) [Compound B-004] / CHK2 (Homo sapiens, UniProt O96017), IC50 recorded as < 3 µM

Record Oc1ccc(Cl)cc1-c1nc(N[C@@H]2CCCNC2)c2ccccc2n1 [Compound A-013] / CHK2 (Homo sapiens, UniProt O96017), IC50 recorded as < 3 µM

====

# measured_target: CHK2 (Homo sapiens, UniProt O96017)
# Construct: made in house
# assay_text: CHK2 kinase activity assay (DELFIA, phosphorylation of a CDC25C peptide)
# Type: biochemical
# recorded_conditions: first set of tested compounds; ATP 30 μM, CHK2 1 nM; read-out: IC50, inhibition of CHK2 kinase activity in vitro
pIC50: −log10 of the molar value.
Below, each of the molecules is paired with its reported pIC50 value.

Here is how some molecules turned out for pIC50.
>>> print(df.to_string())
                                   molecule                      measured_target     obs_value
0  CN1CCN(C(=O)[C@H]2C[C@H](Nc3nc(-c4ccccc4O)nc4ccccc34)CN2)CC1 [Compound A-036]  CHK2 (Homo sapiens, UniProt O96017)        > 5.52
1  Oc1ccccc1-c1nc(N[C@H]2CCN(Cc3ccccc3)C2)c2ccccc2n1 [Compound A-011]  CHK2 (Homo sapiens, UniProt O96017)  4.52 to 5.52
2  CNC(=O)[C@H]1C[C@H](Nc2nc(-c3ccccc3O)nc3ccccc23)CN1 [Compound A-032]  CHK2 (Homo sapiens, UniProt O96017)        > 5.52

Please fill in: pIC50 reported for Oc1ccccc1-c1nc(N[C@H]2CCNC2)c2ccc(-c3ccc(CN4CCOCC4)cc3)cc2n1 [Compound A-027] = > 5.52

Please fill in: pIC50 reported for CN1CCC(Nc2nc(-c3ccccc3O)nc3ccccc23)CC1 [Compound A-003] = > 5.52
